Every entry's value here was drawn from the pKa sets of Baltruschat and Czodrowski (2020).

TEST CONDITIONS: basic group
Assignment: determine reported pKa for the given compounds.
Answers are plain numbers.

Worked examples, 2 compounds total:
COMPOUND: O/N=C/c1cccnc1
RECORDED MEASUREMENT: 3.94
//
COMPOUND: Oc1c(I)cc(I)c2cccnc12
RECORDED MEASUREMENT: 2.7

Value sought for every listed compound: pKa.
1. CC(C[NH3+])/C(N)=N/O (stereo unspecified)
2. CC=O

Result:
[3.65, -0.57]

Value sought for every listed compound: pKa.
1. N#CC1=CN2CCC1CC2
2. Cc1nc(NCc2ccco2)c2cn[nH]c2n1
3. CNC(=O)c1ccccn1

Result:
1. 5.84
2. 4.65
3. 2.4
